Assay: NCI Yeast Anticancer Drug Screen. Data for the wt1 strain (AID 149);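 further: 0% = growth of vehicle-treated wt1 cultures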
Settings: S. cerevisiae wt1 strain (SPY 50644) growth inhibition; at 100.0 µM; hits give high values
The panel holds about 79,000 compounds, 15% with a hit somewhere; the sample as a whole holds those more often. Activity calls are given as the source filed them. No stated cut-off is given here; in the data, active means growth inhibition above about 70%; inactive means the rest.
growth inhibition overview

{"compound": "C(CCSC1=NCCN1)CSC1=NCCN1 (tested in a mixture with another compound)", "measured": "99% (active)"}
{"compound": "COc1ccccc1N=NC(C(=O)c1ccccc1)C(=O)c1ccccc1", "measured": "96% (active)"}
{"compound": "CCNc1nnc(CSc2nc(-c3ccccc3)c(-c3ccccc3)[nH]2)s1", "measured": "77% (active)"}
{"compound": "COc1ccc(OC)c2cc3ccccc3cc12", "measured": "-4% (inactive)"}
{"compound": "CN(C)c1ccc(C(C#N)=C(C#N)C#N)cc1", "measured": "12% (inactive)"}
{"compound": "OC1CCCc2c1cc1ccc3cccc4ccc2c1c34 (stereo unspecified)", "measured": "92% (active)"}
{"compound": "O=C(/C=C\\c1ccc(Cl)cc1Cl)c1cccs1", "measured": "-7% (inactive)"}
{"compound": "OC(c1ccc(F)cc1)(c1ccc(F)cc1)C1CC1", "measured": "90% (active)"}

I'd like to know its growth inhibition. The compound in question is CCN(CC)CCC(=O)c1ccc(Oc2ccc(F)cc2)cc1
80% (active)

I'd like to know its growth inhibition. The compound in question is O=C(NCCCNCCCNC(=O)c1cc(-c2ccccc2)nc2ccccc12)c1cc(-c2ccccc2)nc2ccccc12
-5% (inactive)

I'd like to know its growth inhibition. The compound in question is O=[n+]1c2ccc(Cl)cc2n([O-])c2ccc(Cl)cc21
12% (inactive)

====

Assay: NCI Yeast Anticancer Drug Screen. Data for the wt1 strain (AID 149);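 further: 0% = growth of vehicle-treated wt1 cultures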
Details: S. cerevisiae wt1 strain (SPY 50644) growth inhibition; at 3.7 µM; hits give high values
About 79,000 compounds went through this panel and 15% of them were active in at least one assay; those are over-represented in the sample as a whole.
property measured: growth inhibition (%)
Give just the numeric value; % need not be written.

Examples from the recorded data:
{"compound": "COc1ccc(/C=C2\\SC(=S)N(/C=C/c3nc4ccccc4[nH]c3=O)C2=O)cc1OC", "units label": "%", "growth inhibition": 5}
{"compound": "Cc1ccc(NN(NC(=O)OC(C)C)C(=O)OC(C)C)cc1", "units label": "%", "growth inhibition": 7}
{"compound": "Cc1ccc(S(=O)(=O)NNC(=S)Nc2cccc3ccccc23)cc1", "units label": "%", "growth inhibition": -2}
{"compound": "COC(=O)C1=C(C(=O)OC)C2(C)C=CC1O2 (stereo unspecified)", "units label": "%", "growth inhibition": 7}

I'd like to know its growth inhibition. The compound in question is O=C1Nc2ccc(Cl)c(I)c2C1=O
-13

I'd like to know its growth inhibition. The compound in question is O=C(Nc1ccccc1)OCCc1ccc(Cl)c(Cl)c1
-7

====

growth inhibition overview
Assay: NCI Yeast Anticancer Drug Screen. Data for the wt2 strain (AID 169);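 further: 0% = growth of vehicle-treated yeast cultures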
Conditions: S. cerevisiae wt2 strain growth inhibition; at 100.0 µM; hits give high values
Compounds without any hit were thinned out: in the full panel of roughly 79,000, 15% have a hit. Activity calls are given as the source filed them. Cut-off read from the data, not from the text of the source: active = growth inhibition above about 70%; inactive = the rest.

Examples from the recorded data:
{"molecule": "CC(=O)Nc1ccc2c(c1)C(=Nc1ccc(C(=O)O)cc1)c1ccccc1-2", "growth inhibition": "93% (active)"}
{"molecule": "c1ccc2c(c1)sc1cc3ccncc3cc12", "growth inhibition": "91% (active)"}
{"molecule": "O=C(NCCCCCCCN1CCCCCCC1)C(C1CCCCC1)C1CCCCC1", "growth inhibition": "99% (active)"}

I'd like to know its growth inhibition. The molecule in question is COC(=O)C1=C(C)NC(C)=C(C(=O)OCCCN2CCC(c3ccccc3)(c3ccccc3)CC2)C1c1cccc([N+](=O)[O-])c1 (stereo not given)
91% (active)

I'd like to know its growth inhibition. The molecule in question is Cc1ccc(S/N=C\c2ccccc2O)cc1
-1% (inactive)

====

Assay: NCI Yeast Anticancer Drug Screen. Data for the CLN2oe strain (AID 163);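 further: 0% = growth of vehicle-only control cultures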
Conditions: S. cerevisiae CLN2oe strain, at 3.7 µM, hits give high values
Compounds without any hit were thinned out: in the full panel of roughly 79,000, 15% have a hit.
property measured: growth inhibition (%)
Give just the numeric value; % need not be written.

Examples from the recorded data:
{"compound": "O=C1c2ccccc2-c2nc3ccccc3nc21", "property measured": "growth inhibition", "measured": -18}
{"compound": "CCOP(=O)(OCC)C(Cc1ccccc1)N=C(c1ccccc1)c1ccccc1 (stereo unspecified)", "property measured": "growth inhibition", "measured": -18}
{"compound": "COc1ccc2nc3c([N+](=O)[O-])ccc(NCCN(C)C)c3c(NCCN(C)C)c2c1", "property measured": "growth inhibition", "measured": -1}
{"compound": "CN(C)c1ccc(Sc2ccc3nc(N)nc(N)c3c2)cc1", "property measured": "growth inhibition", "measured": 8}
{"compound": "O=C(/C=C/c1cccc(Br)c1)c1cccs1", "property measured": "growth inhibition", "measured": 10}

I'd like to know its growth inhibition. The compound in question is Nc1ncncc1C(C1=C(O)COC1=O)C1=C(O)COC1=O
-16

====

Assay: NCI Yeast Anticancer Drug Screen. Data for the wt1 strain (AID 149);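 further: 0% = growth of vehicle-treated wt1 cultures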
Settings: S. cerevisiae wt1 strain (SPY 50644) growth inhibition; at 1.2 µM; hits give high values
About 79,000 compounds went through this panel and 15% of them were active in at least one assay; those are over-represented in the sample as a whole.
property measured: growth inhibition (%)
Give just the numeric value; % need not be written.

Examples from the recorded data:
{"molecule": "OC1CSCCCSCCSCCCSC1", "growth inhibition, %": -12}
{"molecule": "O=C(OCC=C1CCCC1)c1cc([N+](=O)[O-])cc([N+](=O)[O-])c1", "growth inhibition, %": -6}

I'd like to know its growth inhibition. The molecule in question is Cc1ccc(Cl)c2[nH]c(-c3ccccc3)cc(=O)c12
-3

I'd like to know its growth inhibition. The molecule in question is COc1cc(C2SCC(=O)N2c2nnc(C(F)(F)F)s2)cc(OC)c1OC (configuration not stated)
-84

I'd like to know its growth inhibition. The molecule in question is N#CN=Nc1cc(Cl)c(N=NC#N)cc1Cl
-6

====

growth inhibition overview
Assay: NCI Yeast Anticancer Drug Screen. Data for the rad14 strain (AID 159);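 further: 0% = growth of vehicle-treated control cultures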
Conditions: S. cerevisiae rad14 strain growth inhibition; at 3.7 µM; hits give high values
This is part of a sample that, as a whole, favours compounds with a hit. Of some 79,000 tested, about 15% had one in any assay.
Give just the numeric value; % need not be written.

{"compound": "N#Cc1ccc(C2NN=CC23C(=O)c2ccccc2OC3c2ccccc2)cc1 (stereo unspecified)", "property measured": "growth inhibition", "measured": 1}
{"compound": "O=C(N=Nc1cc(Cl)ccc1Cl)NNc1cc(Cl)ccc1Cl", "property measured": "growth inhibition", "measured": -4}
{"compound": "NC(=S)N/N=C\\c1nccc2ccccc12", "property measured": "growth inhibition", "measured": 4}

I'd like to know its growth inhibition. The compound in question is Cc1ccc(NC(=O)/C(Cl)=C(\Cl)C(=O)O)cc1C
6

I'd like to know its growth inhibition. The compound in question is COc1cc(CC2CC(c3ccc4c(c3)OCO4)OC2=O)cc(OC)c1OC (stereo unspecified)
-3

I'd like to know its growth inhibition. The compound in question is CC(O)C(O)C(O)C(/C=N\Nc1ccccc1)=N/Nc1ccccc1 (stereo unspecified)
-1

====

Assay: NCI Yeast Anticancer Drug Screen. Data for the bub3 strain (AID 167)
Settings: S. cerevisiae bub3 mutant strain, at 100.0 µM, hits give high values
The panel holds about 79,000 compounds, 15% with a hit somewhere; the sample as a whole holds those more often.
Rule: growth inhibition under 50% gives -1, otherwise 1.

{"compound": "O=c1c2ccccc2ncn1COCc1ccccc1", "classification": 1}
{"compound": "CC(=O)SCCC[Si](C)(C)CCCSC(C)=O", "classification": -1}
{"compound": "OC(c1ccc(F)cc1)(c1ccc(F)cc1)C1CC1", "classification": 1}
{"compound": "CC(C)(C)c1nc2c(o1)C(=O)c1ccccc1C2=O", "classification": 1}
{"compound": "Cc1ccc(-c2ccc(Nc3c4ccccc4nc4ccccc34)cc2)cn1", "classification": -1}

Check the entry CCCCCCCCCC/C=C\C(=O)O : does growth inhibition equal or exceed 50%?
1

Check the entry C[S+](C)C1(c2ccccc2)C(=O)c2ccccc2C1=O : does growth inhibition equal or exceed 50%?
-1

Check the entry CSC(=S)Nc1cc(C)ccn1 : does growth inhibition equal or exceed 50%?
1
